The reported numbers originate from the supplement of paper PMC10567573.

B1: TFE3 (parent)
chain: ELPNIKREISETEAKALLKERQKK

variants of: B1; assay: protein stability index of a GFP-peptide fusion (GPS, HEK-293T) (PSI 1-6); higher = more stable; conditions: c terminus: a fixed tail appended;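 further: lentivirally expressed fusions sorted by FACS into six bins by GFP to DsRed ratio, PSI derived from sequencing read proportions per bin multiplied by bin number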
# label = criterion met if protein stability index >= 3 else criterion not met

# ORDERED RESIDUES, CLASSIFICATION
data = [
    ("ELPNIKREISETNAKALLKERQKK [E13N]", "criterion met"),
    ("ELLNIKREISETEAKALLKERQKK [P3L]", "criterion not met"),
    ("ELPNIKREISEYEAKALLKERQKK [T12Y]", "criterion met"),
    ("ELPNIKREISETEAKALLGERQKK [K19G]", "criterion not met"),
    ("ELPNIDREISETEAKALLKERQKK [K6D]", "criterion met"),
    ("CLPNIKREISETEAKALLKERQKK [E1C]", "criterion met"),
    ("ELPSIKREISETEAKALLKERQKK [N4S]", "criterion met"),
    ("ELPNIKREISETEAKALLKERQMK [K23M]", "criterion not met"),
    ("ELPNIKREISETEAKALLKERCKK [Q22C]", "criterion not met"),
    ("ELPNIKREISETRAKALLKERQKK [E13R]", "criterion met"),
    ("ELPNIKREISETEAKAMLKERQKK [L17M]", "criterion not met"),
    ("ELPNIKREISETEAKALLKQRQKK [E20Q]", "criterion not met"),
    ("ELPNIKREISETEAKALLKERQKS [K24S]", "criterion not met"),
    ("ELPMIKREISETEAKALLKERQKK [N4M]", "criterion not met"),
    ("ELPNIKREISGTEAKALLKERQKK [E11G]", "criterion met"),
    ("ELPNIKREISETEAKALDKERQKK [L18D]", "criterion not met"),
    ("ELPNIKREISETEAKALLKERQAK [K23A]", "criterion not met"),
    ("ELPNIKREISETEAAALLKERQKK [K15A]", "criterion not met"),
    ("ELPNIKREISEDEAKALLKERQKK [T12D]", "criterion met"),
    ("RLPNIKREISETEAKALLKERQKK [E1R]", "criterion met"),
    ("ELPNIKREISETEAKALLKEEQKK [R21E]", "criterion not met"),
    ("ELPNIRREISETEAKALLKERQKK [K6R]", "criterion not met"),
    ("ELPNIKRRISETEAKALLKERQKK [E8R]", "criterion met"),
    ("ELPNIKREISETEARALLKERQKK [K15R]", "criterion met"),
    ("ELPNPKREISETEAKALLKERQKK [I5P]", "criterion met"),
    ("ELPNIKREISCTEAKALLKERQKK [E11C]", "criterion not met"),
    ("ELPNIKRCISETEAKALLKERQKK [E8C]", "criterion met"),
    ("NLPNIKREISETEAKALLKERQKK [E1N]", "criterion not met"),
    ("ELPNIKREISETEAMALLKERQKK [K15M]", "criterion not met"),
    ("ELPNIKREHSETEAKALLKERQKK [I9H]", "criterion met"),
]
